Data origin, for the record: PubChem BioAssay (NCATS)

- Test system: SC27B
- assay_explanation: qHTS profiling for inhibitors of Plasmodium falciparum proliferation (AID 504749); also: nearly all actives have a fitted effect of over 60% in size
- condition_notes: P. falciparum in erythrocytes, SYBR Green DNA, 72 h; series mostly up to 12.8 µM
Records with an inconclusive call do not appear. Active and inactive are the calls of the source. Calls follow the shape of the dose curve; as a rule, active = well fitted inhibition curve with a large enough effect; inconclusive = small, poorly fitted or top-dose-only effect; inactive = flat fitted curve, though single readings scatter. Peptide text beside a SMILES is read from it.
Give one outcome, nothing more. List: active, inactive

Please indicate how the test categorized CC1(C)S[C@H]2C(NC(=O)[C@@H](N)c3ccc(O)cc3)C(=O)N2[C@@H]1C(=O)O (stereo partly drawn) .
inactive

Recorded test outcome, item CCC(=O)[C@@]1(C)[C@H](C)C[C@@H]2[C@@H]3CCC4=CC(=O)C=C[C@@]4(C)[C@H]3[C@H](O)C[C@]21C
inactive

Hi, do you know how NS(=O)(=O)c1cc2c(cc1C(F)(F)F)N[C@H](Cc1ccccc1)NS2(=O)=O came out in this test?
inactive

So what was the verdict on COC(=O)C(Cc1ccccc1)NC(=O)C(N)CC(=O)O (stereo not drawn) (H-Asp-Phe-OMe; configuration not given here) in this test?
inactive

What did this assay record as the result for CO[C@]1(NC(=O)C2SC(=C(C(N)=O)C(=O)O)S2)C(=O)N2C(C(=O)O)=C(CSc3nnnn3C)CS[C@H]21 (stereo partly drawn) ?
inactive

Write down the call the test reported for this compound. Item: O=C(O)[C@@H]1CCCN1
inactive

Look up the recorded call for CS(=O)(=O)c1ccc([C@H](O)[C@H](CO)NC(=O)C(Cl)Cl)cc1 in this test.
inactive

What call does the record list for CC(=O)[C@@H]1CC[C@@H]2[C@@H]3C[C@H](C)C4=CC(=O)CC[C@@]4(C)[C@H]3[C@H](O)C[C@]21C ?
inactive

Answer briefly: the call reported for CN(C/C=C\c1ccccc1)Cc1cccc2ccccc12 in this assay.
inactive

In this assay, the call recorded for CC[C@H](CO)NCCN[C@@H](CC)CO was what?
inactive

Please share the test call associated with CC=C(/C(=C/C)c1ccc(O)cc1)c1ccc(O)cc1 .
inactive

Returns: the outcome recorded for CC1(C)OC2CC(=O)OC[C@@]23C1CC(=O)[C@]1(C)C3CC[C@@]2(C)C(c3ccoc3)OC(=O)C3O[C@@]321 (stereo partly drawn) in this assay.
inactive

Dear all, I need the recorded test outcome for CCc1c(C)[nH]c2c1C(=O)[C@H](CN1CCOCC1)CC2 , thank you.
inactive

Recorded call for COC1C=CO[C@@]2(C)Oc3c(C)c(O)c4c(O)c(c(C=NN5CCN(C)CC5)c(O)c4c3C2=O)NC(=O)/C(C)=C\C=CC(C)C(O)[C@@H](C)C(O)C(C)[C@H](OC(C)=O)C1C (stereo partly drawn) ?
active

Assay outcome for CC(=O)OCC(=O)[C@@]1(O)[C@H](C)C[C@@H]2[C@H]3CCC4=CC(=O)C=C[C@]4(C)[C@]3(F)[C@@H](O)C[C@@]21C : what was it?
inactive

# lookup: test call for CCN[C@@H]1CN(CCCOC)S(=O)(=O)c2sc(S(N)(=O)=O)cc21
inactive

GET /call?item= CNC[C@H](O)c1ccc(OC(=O)C(C)(C)C)c(OC(=O)C(C)(C)C)c1 returns the recorded outcome of this test.
inactive

Called result for CC(=O)OCC(=O)[C@@]12OC(C)(C)O[C@@H]1C[C@H]1[C@H]3C[C@H](F)C4=CC(=O)C=C[C@@]4(C)[C@]3(F)[C@H](O)C[C@@]12C
inactive
